# Selectivity index (SI) listing for each entry below
system: ovine COX-2 (Ovis aries)
Construct: purchased Cayman Chemical, Ann Arbor, MI, USA
Sequence (P79208 17-603): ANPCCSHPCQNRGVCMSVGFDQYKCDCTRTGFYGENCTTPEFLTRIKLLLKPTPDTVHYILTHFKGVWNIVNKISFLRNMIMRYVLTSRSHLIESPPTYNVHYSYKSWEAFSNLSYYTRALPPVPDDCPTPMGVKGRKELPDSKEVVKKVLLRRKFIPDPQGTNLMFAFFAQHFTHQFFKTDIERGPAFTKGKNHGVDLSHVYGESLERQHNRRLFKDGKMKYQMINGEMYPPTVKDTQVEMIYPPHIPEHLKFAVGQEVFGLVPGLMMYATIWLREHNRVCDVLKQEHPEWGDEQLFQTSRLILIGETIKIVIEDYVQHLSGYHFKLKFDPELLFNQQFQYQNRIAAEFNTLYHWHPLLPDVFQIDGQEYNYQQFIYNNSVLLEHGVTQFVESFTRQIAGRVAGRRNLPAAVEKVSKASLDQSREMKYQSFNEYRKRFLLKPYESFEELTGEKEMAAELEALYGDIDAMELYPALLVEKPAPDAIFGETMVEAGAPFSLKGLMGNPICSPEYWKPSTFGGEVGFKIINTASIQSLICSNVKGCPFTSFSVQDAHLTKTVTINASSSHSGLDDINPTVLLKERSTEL
method: In vitro ovine COX-2 enzyme inhibition (chemiluminescent enzyme assay kit, Cayman)
Assay type: biochemical
measurement.parameters: In vitro COX-2 selectivity index (COX-1 IC50/COX-2 IC50)
measured.metric: Selectivity index (SI)

smi=COc1c(-c2ccc(S(C)(=O)=O)cc2)oc2ccccc2c1=O measured_metric="Selectivity index (SI)" result_value=126.5
smi=CCOc1c(-c2ccc(S(C)(=O)=O)cc2)oc2ccccc2c1=O measured_metric="Selectivity index (SI)" result_value=149.1
smi=CS(=O)(=O)c1ccc(-c2cc(=O)c3ccccc3o2)cc1 measured_metric="Selectivity index (SI)" result_value=98.2
smi=CC(=O)Oc1c(-c2ccc(S(C)(=O)=O)cc2)oc2ccccc2c1=O measured_metric="Selectivity index (SI)" result_value=195.6
smi=CS(=O)(=O)c1ccc(-c2oc3ccccc3c(=O)c2OCc2ccccc2)cc1 measured_metric="Selectivity index (SI)" result_value=287.1
smi=C=CCOc1c(-c2ccc(S(C)(=O)=O)cc2)oc2ccccc2c1=O measured_metric="Selectivity index (SI)" result_value=173.1
smi=CS(=O)(=O)c1ccc(-c2oc3ccccc3c(=O)c2O)cc1 measured_metric="Selectivity index (SI)" result_value=75.3

----------
system: ovine COX-1 (Ovis aries)
Construct: purchased Cayman Chemical, Ann Arbor, MI, USA
Sequence (P05979 25-600): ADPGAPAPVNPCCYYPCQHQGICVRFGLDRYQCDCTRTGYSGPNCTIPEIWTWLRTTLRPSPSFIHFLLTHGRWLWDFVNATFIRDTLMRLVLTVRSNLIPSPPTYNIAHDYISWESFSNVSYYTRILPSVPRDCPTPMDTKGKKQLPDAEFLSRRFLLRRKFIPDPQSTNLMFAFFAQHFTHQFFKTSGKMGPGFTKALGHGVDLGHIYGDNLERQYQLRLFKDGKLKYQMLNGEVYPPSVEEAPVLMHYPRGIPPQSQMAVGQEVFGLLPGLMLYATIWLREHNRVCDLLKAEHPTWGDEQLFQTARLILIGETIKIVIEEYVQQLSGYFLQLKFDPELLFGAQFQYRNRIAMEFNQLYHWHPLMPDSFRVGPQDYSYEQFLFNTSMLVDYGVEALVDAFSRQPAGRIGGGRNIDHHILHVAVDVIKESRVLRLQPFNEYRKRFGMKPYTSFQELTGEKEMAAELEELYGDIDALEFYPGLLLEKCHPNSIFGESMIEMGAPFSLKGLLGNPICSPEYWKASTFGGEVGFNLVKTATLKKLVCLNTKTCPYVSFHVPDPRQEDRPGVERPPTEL
method: In vitro ovine COX-1 enzyme inhibition (chemiluminescent enzyme assay kit, Cayman)
Type: biochemical
measurement.parameters: ovine COX-1/COX-2 assay kit; means of two determinations, deviation < 10% of the mean
measured.metric: IC50 (µM)

smi=CC(=O)Oc1c(-c2ccc(S(C)(=O)=O)cc2)oc2ccccc2c1=O unit_name=µM result_value=15.6
smi=C=CCOc1c(-c2ccc(S(C)(=O)=O)cc2)oc2ccccc2c1=O unit_name=µM result_value=13.8
smi=CCOc1c(-c2ccc(S(C)(=O)=O)cc2)oc2ccccc2c1=O unit_name=µM result_value=13.4
smi=CS(=O)(=O)c1ccc(-c2oc3ccccc3c(=O)c2O)cc1 unit_name=µM result_value=9.79
smi=COc1c(-c2ccc(S(C)(=O)=O)cc2)oc2ccccc2c1=O unit_name=µM result_value=12.7
smi=CS(=O)(=O)c1ccc(-c2oc3ccccc3c(=O)c2OCc2ccccc2)cc1 unit_name=µM result_value=20.1
smi=CS(=O)(=O)c1ccc(-c2cc(=O)c3ccccc3o2)cc1 unit_name=µM result_value=10.8

----------
Measured melting point accompanies every entry in the list below.
measured.metric: melting point

smi=COc1c(-c2ccc(S(C)(=O)=O)cc2)oc2ccccc2c1=O measured_metric="melting point" result_value="92 to 93 °C"
smi=C=CCOc1c(-c2ccc(S(C)(=O)=O)cc2)oc2ccccc2c1=O measured_metric="melting point" result_value="116 to 118 °C"
smi=CS(=O)(=O)c1ccc(-c2oc3ccccc3c(=O)c2OCc2ccccc2)cc1 measured_metric="melting point" result_value="140 to 142 °C"
smi=CS(=O)(=O)c1ccc(-c2cc(=O)c3ccccc3o2)cc1 measured_metric="melting point" result_value="187 °C"
smi=CCOc1c(-c2ccc(S(C)(=O)=O)cc2)oc2ccccc2c1=O measured_metric="melting point" result_value="137 to 138 °C"
smi=CC(=O)Oc1c(-c2ccc(S(C)(=O)=O)cc2)oc2ccccc2c1=O measured_metric="melting point" result_value="175 °C"
smi=CS(=O)(=O)c1ccc(-c2oc3ccccc3c(=O)c2O)cc1 measured_metric="melting point" result_value="198 to 199 °C"
